meta.source: BigSolDB 2.1

details: in n-propanol, 285.65 K

mol	solubility (mole fraction)
CCOC(=O)Cc1c(C(=O)OCC)sc(N(CC(=O)OCC)CC(=O)OCC)c1C#N	0.000762

---

settings: in ethyl acetate, 295.65 K

mol	solubility (mole fraction)
CCOC(=O)Cc1c(C(=O)OCC)sc(N(CC(=O)OCC)CC(=O)OCC)c1C#N	0.0442

---

details: in n-butanol, 283.15 K

mol	solubility (mole fraction)
CCOC(=O)Cc1c(C(=O)OCC)sc(N(CC(=O)OCC)CC(=O)OCC)c1C#N	0.000391

---

conditions: in toluene, 288.15 K

mol	solubility (mole fraction)
CCOC(=O)Cc1c(C(=O)OCC)sc(N(CC(=O)OCC)CC(=O)OCC)c1C#N	0.0162
